# Assay type: physicochemical
# Test context: after 3 days
Reported endpoint: Decrease of the T1 relaxation rates (R1) in zinc transmetallation assay

O=C([O-])CN1CCN(CC(=O)[O-])CCN([C@H](CO)[C@H](O)CO)CCN(CC(=O)[O-])CC1.[Gd+3] (racemic) [Gadobutrol, gadobutrol, reference compound] :: no change
CNC[C@H](O)[C@@H](O)[C@H](O)[C@H](O)CO.CNC[C@H](O)[C@@H](O)[C@H](O)[C@H](O)CO.O=C([O-])CN(CCN(CC(=O)[O-])CC(=O)O)CCN(CC(=O)[O-])CC(=O)O.[Gd+3] [Gadopentetate dimeglumine, gadopentetate dimeglumine] :: 66%
CNC[C@H](O)[C@@H](O)[C@H](O)[C@H](O)CO.O=C([O-])CN1CCN(CC(=O)[O-])CCN(CC(=O)O)CCN(CC(=O)[O-])CC1.[Gd+3] [Gadoterate meglumine, gadoterate meglumine] :: no change
